# system-under-test: steroid site on the GABAA receptor-chloride channel complex
# assay-comment: [35S]TBPS binding assay
# Parameters: species or system Male Sprague-Dawley rats
# study-conditions: inhibition of [35S]TBPS (2 nM) binding, rat cerebral cortex P2 membranes, 5 µM GABA, 90 minute incubation at 22°C
measurement-label: pIC50
When answering, recall that pIC50 equals minus log10 of the concentration in mol/L, and write that number alone.

Some entries whose results are on file:
- CC(=O)[C@H]1CC[C@H]2[C@@H]3CC[C@H]4C[C@](C)(O)CC[C@@H]4[C@H]3CC[C@]12C: 7.04
- CC(=O)[C@H]1CC[C@H]2[C@@H]3CC[C@@H]4C[C@@](O)(C#Cc5ccccc5O)CC[C@]4(C)[C@H]3CC[C@]12C: 6.72
- C/C=C1/CC[C@H]2[C@@H]3CC[C@@H]4C[C@](C)(O)CC[C@@H]4[C@H]3CC[C@]12C: 6.81

Record CC(=O)[C@H]1CC[C@H]2[C@@H]3CC[C@@H]4C[C@@](O)(C#CCl)CC[C@]4(C)[C@H]3CC[C@]12C ; system steroid site on the GABAA receptor-chloride channel complex; pIC50 = 7.59

The reported steroid site on the GABAA receptor-chloride channel complex pIC50 of C/C=C1/CC[C@H]2[C@@H]3CC[C@@H]4C[C@H](O)CC[C@@H]4[C@H]3CC[C@]12C [3α-Hydroxy-5β-19-nor-pregn-17(z) ene] is 6.68

Tested on steroid site on the GABAA receptor-chloride channel complex: COC[C@@]1(O)CC[C@@]2(C)[C@H](CC[C@@H]3[C@@H]2CC[C@]2(C)[C@@H](C(C)=O)CC[C@@H]32)C1 . Observed pIC50: 7.40

Form field, pIC50 with steroid site on the GABAA receptor-chloride channel complex, item C[C@@H](O)[C@H]1CC[C@H]2[C@@H]3CC[C@@H]4C[C@H](O)CC[C@]4(C)[C@H]3CC[C@]12C [3α,20b-dihydroxy-5β-pregnane] : 6.69

----------
# system-under-test: steroid site on the GABAA receptor-chloride channel complex
# assay-comment: [35S]TBPS binding assay
# Design: species or system Male Sprague-Dawley rats
# study-conditions: inhibition of [35S]TBPS (2 nM) binding, rat cerebral cortex P2 membranes, 5 µM GABA, 90 minute incubation at 22°C
measurement-label: IC50 (nM)
Please respond with the number in nM and leave the unit unwritten.

Worked examples, 5 molecules total:
* CCCCC#C[C@@]1(O)CC[C@@]2(C)[C@H](CC[C@@H]3[C@@H]2CC[C@]2(C)[C@@H](C(C)=O)CC[C@@H]32)C1 | 44
* CC(=O)[C@H]1CC[C@H]2[C@@H]3CC[C@H]4C[C@@](O)(CF)CC[C@]4(C)[C@H]3CC[C@]12C | 200
* COCC(=O)[C@H]1CC[C@H]2[C@@H]3CC[C@@H]4C[C@@](O)(C(F)(F)F)CC[C@@H]4[C@H]3CC[C@]12C | 252
* C#C[C@@]1(O)CC[C@H]2[C@H](CC[C@@H]3[C@@H]2CC[C@]2(C)/C(=C\C)CC[C@@H]32)C1 | 460
* CC(=O)[C@H]1CC[C@H]2[C@@H]3CC[C@@H]4C[C@](C)(O)CC[C@@H]4[C@H]3CC[C@]12C | 26

IC50 measured on CCC[C@H](O)[C@H]1CC[C@H]2[C@@H]3CC[C@H]4C[C@H](O)CC[C@]4(C)[C@H]3CC[C@]12C [3α,20a-Dihydroxy-21-ethyl-5α-pregnane] = 27

Record C[C@@]1(O)CC[C@@]2(C)[C@@H](CC[C@@H]3[C@@H]2CC[C@]2(C)[C@@H](C(=O)COC(=O)CCC(=O)O)CC[C@@H]32)C1 , field IC50: 241

In plain terms, C[C@]12CC[C@H]3[C@@H](CC[C@@H]4C[C@@](O)(C(F)(F)F)CC[C@@H]43)[C@@H]1CC[C@@H]2C(=O)CO has a documented IC50 of 265

# IC50 of CC(=O)[C@H]1CC[C@H]2[C@@H]3CC[C@H]4C[C@@](O)(C#CC(C)O)CC[C@]4(C)[C@H]3CC[C@]12C (some centres unmarked) = 140

Consider C[C@]12CC[C@@H](O)C[C@@H]1CC[C@@H]1[C@@H]2CC[C@]2(C)[C@@H](C(=O)CSc3ccncc3)CC[C@@H]12 . Its measured IC50 is 23

----------
# system-under-test: steroid site on the GABAA receptor-chloride channel complex
# assay-comment: [35S]TBPS binding assay
# Design: species or system Male Sprague-Dawley rats
# study-conditions: inhibition of [35S]TBPS (2 nM) binding, rat cerebral cortex P2 membranes, 5 µM GABA, 90 minute incubation at 22°C
# Protocol: TBPS binding assays were conducted according to the following procedures, which are described in Gee, K.W.; Lawrence, L.J.; and Yamamura, H. I., "Modulation of the Chloride Ionophore by Benzodiazepine Receptor Ligands Influence of Gamma-Aminobutyric Acid and Ligand Efficacy," Molecular Pharmacology, 30:218, 1986. […] Following a 90 minute incubation at 22°C, the suspension was filtered and the bound radioactivity was determined by liquid scintillation counting. […]
measurement-label: pIC50
# pIC50 = -log10(concentration in molar units)

Look over these answered cases.
• COc1ccc(C#C[C@@]2(O)CC[C@@]3(C)[C@H](CC[C@@H]4[C@@H]3CC[C@]3(C)[C@@H](C(C)=O)CC[C@@H]43)C2)cc1OC = 6.55
• CCC(=O)[C@H]1CC[C@H]2[C@@H]3CC[C@H]4C[C@](C)(O)CC[C@]4(C)[C@H]3CC[C@]12C = 7.05
• C=CC[C@@]1(O)CC[C@@]2(C)[C@H](CC[C@@H]3[C@@H]2CC[C@]2(C)[C@@H](C(C)=O)CC[C@@H]32)C1 = 7.12
• CCCCCC#C[C@@]1(O)CC[C@@]2(C)[C@H](CC[C@@H]3[C@@H]2CC[C@]2(C)[C@@H](C(C)=O)CC[C@@H]32)C1 = 7.19
• C/C=C1/CC[C@H]2[C@@H]3CC[C@@H]4C[C@H](O)CC[C@]4(C)[C@H]3CC[C@]12C [3α-hydroxy-5β-pregnan-cis(Z)-17(20)-ene] = 6.74

get_value(item= C[C@@]1(O)CC[C@@]2(C)[C@@H](CC[C@@H]3[C@@H]2CC[C@]2(C)[C@@H](C(=O)COS(C)(=O)=O)CC[C@@H]32)C1 , readout=pIC50) returns 6.59

The molecule listed as C[C@H](O)[C@H]1CC[C@H]2[C@@H]3CC[C@@H]4C[C@H](O)CC[C@]4(C)[C@H]3CC[C@]12C [3α, 20a-dihydroxy-5β-pregnane] has a reported pIC50 of 6.53

Field pIC50 (entry CC/C=C1/CC[C@H]2[C@@H]3CC[C@@H]4C[C@H](O)CC[C@]4(C)[C@H]3CC[C@]12C ) reads 6.66

For record C[C@]12CC[C@@H](O)C[C@H]1CC[C@@H]1[C@@H]2CC[C@]2(C)[C@@H](C(=O)COC(=O)CCC(=O)O)CC[C@@H]12 the listed pIC50 is 6.65

----------
Measured pIC50 by item
# system-under-test: steroid site on the GABAA receptor-chloride channel complex
# assay-comment: [35S]TBPS binding assay
# Set-up: species or system Male Sprague-Dawley rats
# study-conditions: inhibition of [35S]TBPS (2 nM) binding, rat cerebral cortex P2 membranes, 5 µM GABA, 90 minute incubation at 22°C
Just so you know, pIC50 here is -log10 of the concentration in molar units; reply with that number alone.

Below, each entry is followed by its recorded pIC50 result.
* CC(=O)[C@H]1CC[C@H]2[C@@H]3CC[C@H]4C[C@@](O)(C(F)(F)F)CC[C@@H]4[C@H]3CC[C@]12C | 6.60
* CC[C@H](O)[C@H]1CC[C@H]2[C@@H]3CC[C@H]4C[C@H](O)CC[C@]4(C)[C@H]3CC[C@]12C [3α,20a-Dihydroxy-21-methyl-5α-pregnane] | 7.46
* C=CCC[C@@]1(O)CC[C@@]2(C)[C@@H](CC[C@@H]3[C@@H]2CC[C@]2(C)[C@@H](C(C)=O)CC[C@@H]32)C1 | 6.62

Attention now turns to another entry.
The recorded pIC50 for entry C#C[C@@]1(O)CC[C@@]2(C)[C@H](CC[C@@H]3[C@@H]2CC[C@]2(C)[C@@H](C(=O)COC(C)=O)CC[C@@H]32)C1 equals 6.60
